GI50 at 48 h by entry:
assay_notes: Cytotoxicity against human HaCaT cells after 48 hrs by SRB assay
Assay type: cell-based
Form entry: value (µg/mL) — number only.

Example molecules with recorded GI50 at 48 h:
[Q] // query GI50 at 48 h value for entry CCCCCOCCCC1Cc2ccc(OC)cc2C(=O)O1 (racemic)
[A] 32.3

[Q] Try this molecule next: COc1ccc2cc(CO)oc(=O)c2c1
[A] 134

[Q] Try this molecule next: COc1ccc2c(c1)C(=O)OC(CCCO)C2 (racemic)
[A] 130

--- query ---
[Q] // query GI50 at 48 h value for entry O=c1oc(CO)cc2ccccc12
[A] 222

====

Tested on: HaCaT
assay_notes: Selectivity index, ratio of GI50 for human HaCaT cells to GI50 for human U251 cells
Type: functional
# note: exactly 0.9 is not below, so it is Condition not met; use Condition met for RatioGI50 strictly under it

Solved entries (count: 8):
[Q] Is RatioGI50 strictly under 0.9 for the entry COc1ccc2c(c1)C(=O)OC(CCCn1nnnc1-c1ccccc1)C2 (racemic) ?
[A] Condition not met

[Q] Try this compound next: COc1ccc2cc(CCCSc3nnnn3-c3ccccc3)oc(=O)c2c1
[A] Condition not met

[Q] Try this compound next: COc1ccc2cc(CCCOCCCc3cccnc3)oc(=O)c2c1
[A] Condition not met

[Q] Try this compound next: COc1ccc2cc(CO)oc(=O)c2c1
[A] Condition met

[Q] Try this compound next: COc1ccc2cc(CCCn3nnnc3-c3ccccc3)oc(=O)c2c1
[A] Condition not met

[Q] Try this compound next: CCCCCOCCCc1cc2ccc(OC)cc2c(=O)o1
[A] Condition met

[Q] Try this compound next: CCCCCOCCCC1Cc2ccc(OC)cc2C(=O)O1 (racemic)
[A] Condition not met

[Q] Try this compound next: COc1ccc2cc(CCCO)oc(=O)c2c1
[A] Condition not met

Now for a further compound.
[Q] Is RatioGI50 strictly under 0.9 for the entry COc1ccc2c(c1)C(=O)OC(CCCO)C2 (racemic) ?
[A] Condition not met

====

RatioGI50 by entry:
System: HaCaT
assay_notes: Selectivity index, ratio of GI50 for human HaCaT cells to GI50 for human 786-0 cells
Format: functional

Example compounds with recorded RatioGI50:
[Q] // query RatioGI50 value for entry CCCCCOCCCC1Cc2ccc(OC)cc2C(=O)O1 (racemic)
[A] 1.01

[Q] Try this compound next: COc1ccc2c(c1)C(=O)OC(CCCO)C2 (racemic)
[A] 1.28

--- query ---
[Q] // query RatioGI50 value for entry CCCCCOCCCc1cc2ccc(OC)cc2c(=O)o1
[A] 0.22

====

assay_notes: Cytotoxicity against human HaCaT cells after 48 hrs by SRB assay
Type: cell-based
GI50 at 48 h by entry:
Form entry: value (µg/mL) — number only.

[Q] // query GI50 at 48 h value for entry COc1ccc2cc(CCCOCCCc3cccnc3)oc(=O)c2c1
[A] 27

Continuing:
[Q] // query GI50 at 48 h value for entry CCCCCOCCCc1cc2ccc(OC)cc2c(=O)o1
[A] 5.5

[Q] Try this compound next: COc1ccc2cc(COCCCc3cccnc3)oc(=O)c2c1
[A] 26.2

[Q] Try this compound next: COc1ccc2cc(CCCO)oc(=O)c2c1
[A] 29

====

Tested on: HaCaT
assay_notes: Selectivity index, ratio of GI50 for human HaCaT cells to GI50 for human 786-0 cells
Format: functional
measurement_label: RatioGI50
Answer with the value's number alone.

[Q] // query RatioGI50 value for entry COc1ccc2cc(COCCCc3cccnc3)oc(=O)c2c1
[A] 0.92

[Q] Try this compound next: COc1ccc2cc(CCCOCCCc3cccnc3)oc(=O)c2c1
[A] 0.94

[Q] Try this compound next: COc1ccc2cc(CO)oc(=O)c2c1
[A] 3.57

--- query ---
[Q] // query RatioGI50 value for entry COc1ccc2cc(CCCO)oc(=O)c2c1
[A] 1.08

====

System: NCI-H460
assay_notes: Antiproliferative activity against human NCI-H460 cells after 48 hrs by SRB assay
Type: functional
measurement_parameters: NCI-H460, 48 h
GI50 by entry:
Form entry: value (µg/mL) — number only.

[Q] Report GI50 for COc1ccc2c(c1)C(=O)OC(CCCO)C2 (racemic) tested on NCI-H460.
[A] 136

[Q] Try this compound next: CCCCCOCCCc1cc2ccc(OC)cc2c(=O)o1
[A] 32

[Q] Try this compound next: COc1ccc2c(c1)C(=O)OC(CCCn1nnnc1-c1ccccc1)C2 (racemic)
[A] 211

Continuing:
[Q] Report GI50 for COc1ccc2cc(CCCO)oc(=O)c2c1 tested on NCI-H460.
[A] 29.1

[Q] Try this compound next: COc1ccc2cc(COCCCc3cccnc3)oc(=O)c2c1
[A] 29.6

====

GI50 by entry:
Test system: NCI-H460
assay_notes: Antiproliferative activity against human NCI-H460 cells after 48 hrs by SRB assay
Format: functional
measurement_parameters: NCI-H460, 48 h
Form entry: value (µg/mL) — number only.

Example compounds with recorded GI50:
[Q] // query GI50 value for entry CCCCCOCCCC1Cc2ccc(OC)cc2C(=O)O1 (racemic)
[A] 33.7

[Q] Try this compound next: COc1ccc2cc(CCCOCCCc3cccnc3)oc(=O)c2c1
[A] 25.2

--- query ---
[Q] // query GI50 value for entry COc1ccc2cc(CO)oc(=O)c2c1
[A] 93.2

====

assay_notes: Cytotoxicity against human HaCaT cells after 48 hrs by SRB assay
Type: cell-based
GI50 at 48 h by entry:

Example compounds with recorded GI50 at 48 h:
[Q] // query GI50 at 48 h value for entry COc1ccc2c(c1)C(=O)OC(CCCn1nnnc1-c1ccccc1)C2 (racemic)
[A] ≥ 250 µg/mL

[Q] Try this compound next: COc1ccc2cc(CCCSc3nnnn3-c3ccccc3)oc(=O)c2c1
[A] ≥ 250 µg/mL

[Q] Try this compound next: COc1ccc2c(c1)C(=O)OC(CCCSc1nnnn1-c1ccccc1)C2 (racemic)
[A] ≥ 250 µg/mL

[Q] Try this compound next: COc1cccc2c1C(=O)c1c(O)c3c(c(O)c1C2=O)C[C@@](O)(C(=O)CO)C[C@@H]3O[C@H]1C[C@H](N)[C@H](O)[C@H](C)O1 [DOXORUBICIN]
[A] < 0.025 µg/mL

[Q] Try this compound next: COc1ccc2cc(CCCn3nnnc3-c3ccccc3)oc(=O)c2c1
[A] ≥ 250 µg/mL

--- query ---
[Q] // query GI50 at 48 h value for entry O=C1OC(CO)Cc2ccccc21 (racemic)
[A] ≥ 250 µg/mL
